- protocol: gradient 5% acetonitrile 3 min, to 50% in 2 min, to 85% in 15 min, held 3 min, 100 µL/min
- experimental-context: column: Zorbax Extend-C18 2.1 x 50 mm; eluents: water / acetonitrile, 0.1% formic acid
measured-endpoint: RP-LC retention time (s)

Input: Fill in reported RP-LC retention time for this entry: Cc1ccnc(Nc2ccc(NCCNS(=O)(=O)Cc3ccccc3)nn2)c1
Output: 570

Input: Fill in reported RP-LC retention time for this entry: CCCCS(=O)(=O)c1cc2c(cc1NC(=O)c1cccc(C)c1)n(C)c(=O)n2C
Output: 981

Input: Fill in reported RP-LC retention time for this entry: CCOC(=O)c1sc(NC(=O)c2cn(C)nc2OC)nc1C
Output: 767

Input: Fill in reported RP-LC retention time for this entry: CC(C)(C)NCCC(O)c1cc(C(F)(F)F)nc2c(C(F)(F)F)cccc12 (stereo not given)
Output: 718

Input: Fill in reported RP-LC retention time for this entry: CC(C)N1CCn2cc(S(=O)(=O)Nc3ccc(F)cc3Cl)cc2C1=O
Output: 778

###

- protocol: gradient 5% acetonitrile 3 min, to 50% in 2 min, to 85% in 15 min, held 3 min, 100 µL/min
- experimental-context: column: Zorbax Extend-C18 2.1 x 50 mm; eluents: water / acetonitrile, 0.1% formic acid
measured-endpoint: RP-LC retention time (s)

Input: Fill in reported RP-LC retention time for this entry: O=C(NCC(F)F)c1cc2c(s1)N(CC1CC1)CCCC2
Output: 1000

Input: Fill in reported RP-LC retention time for this entry: COc1cc(C(=O)N2CCN(c3cc(C)c4ccccc4n3)CC2)cc(OC)c1OC
Output: 635

Input: Fill in reported RP-LC retention time for this entry: CCC(C(=O)N1CCN(c2ccc3nnc(-c4ccco4)n3n2)CC1)c1ccccc1 (stereo not given)
Output: 727

Input: Fill in reported RP-LC retention time for this entry: O=C(Nc1cccc(-c2nnc3n2CCCC3)c1)c1ccoc1
Output: 640

Input: Fill in reported RP-LC retention time for this entry: CCn1cc(C)c(C(=O)O)c1CC(=O)NCCc1ccc(C)cc1
Output: 842

###

- protocol: gradient 5% acetonitrile 3 min, to 50% in 2 min, to 85% in 15 min, held 3 min, 100 µL/min
- experimental-context: column: Zorbax Extend-C18 2.1 x 50 mm; eluents: water / acetonitrile, 0.1% formic acid
measured-endpoint: RP-LC retention time (s)

1. CC1=NS(=O)(=O)N(C)C=C1C(=O)OCCOc1ccccc1
2. O=C(Nc1cccc(F)c1)C1(CCO)CCN(c2ncccn2)C1 (stereo not given)
Input: Lower value of RP-LC retention time belongs to which: 1 or 2 ? Provide the label of your selected option as the answer.
Output: 2
(2: 639 s, 1: 921 s)

###

- protocol: gradient 5% acetonitrile 3 min, to 50% in 2 min, to 85% in 15 min, held 3 min, 100 µL/min
- experimental-context: column: Zorbax Extend-C18 2.1 x 50 mm; eluents: water / acetonitrile, 0.1% formic acid
measured-endpoint: RP-LC retention time (s)

Input: Fill in reported RP-LC retention time for this entry: CN(C)c1ccc(CNS(=O)(=O)c2cc(-c3nc(C(C)(C)C)cs3)cs2)cc1
Output: 1100

Input: Fill in reported RP-LC retention time for this entry: O=C(NCc1ccco1)c1cc2c(s1)CCN(C(=O)c1ccc(Cl)cc1)C2
Output: 846

Input: Fill in reported RP-LC retention time for this entry: O=C(Cn1cccc1-c1nnc(C2CCC2)o1)N1CCN(Cc2ccc3c(c2)OCO3)CC1
Output: 688

Input: Fill in reported RP-LC retention time for this entry: CCCn1cc(C2=CCN(C(=O)NC3CCCCC3)CC2)c2cccnc21
Output: 943

Input: Fill in reported RP-LC retention time for this entry: Cc1cccc(NS(=O)(=O)c2cc3c(=O)n(C)ncn3c2)c1
Output: 797

Input: Fill in reported RP-LC retention time for this entry: Cc1ccccc1NC(=O)/C=N/O
Output: 636

Input: Fill in reported RP-LC retention time for this entry: Cc1ccccc1-c1noc(C2CC(=O)N(c3ccc4c(c3)OCO4)C2)n1 (stereo not given)
Output: 718

Input: Fill in reported RP-LC retention time for this entry: Cc1ccc(NC(=O)Cn2c(=O)c(CCC(=O)NC3CCCC3)nc3ccccc32)c(C)c1
Output: 841

Input: Fill in reported RP-LC retention time for this entry: CCc1ccc(CN2C[C@@H]3C(=O)N(CCOC)C(=O)[C@@H]3C2)cc1
Output: 631

Input: Fill in reported RP-LC retention time for this entry: CCOC(=O)Cc1ccc(NC(=O)NC2CCN(c3ccc(C)cc3)C2=O)cc1 (stereo not given)
Output: 784
